- protocol_text: Metabolic stability in mouse liver microsomes assessed as parent compound remaining measured after 0.5 mins in presence of NADPH regenerating system by LC-MS/MS analysis
- Type: ADME, Microsome
- reported_conditions: read-out: Stability
readout_kind: remaining at 0.5 min (%)
Response body: numeric value in %, unit text excluded.

Looking up CCC(CC)O[C@@H]1C=C(C(=O)OCCN2CCOCC2)C[C@H](N)[C@H]1NC(C)=O , I see its remaining at 0.5 min listed as 100

---

- protocol_text: Metabolic stability in mouse liver microsomes assessed as parent compound remaining measured after 30 mins in absence of NADPH regenerating system by LC-MS/MS analysis
- Format: ADME, Microsome
- reported_conditions: read-out: Stability
readout_kind: remaining at 0.5 h (%)
Give the quantity in %, number only.

remaining at 0.5 h measured on CCC(CC)O[C@@H]1C=C(C(=O)OCCN2CCOCC2)C[C@H](N)[C@H]1NC(C)=O = 109
